src = ChEMBL document CHEMBL1122189

Entries annotated with measured Decrease in blood pressure
- System: Rattus norvegicus
- protocol: Hypotensive response (diastolic blood pressure) was determined at 30 minutes for a dose 10 mg/kg administered and 1 mL of corn oil in rat
- Assay type: functional, Artery
# output: bare number, implied unit %

| structure | Decrease in blood pressure (%) |
| --- | --- |
| [O-]c1n[n+](-c2ccc(Cl)cc2)no1 | 47.9 |
| [O-]c1n[n+](-c2c(Cl)cccc2Cl)no1 | 8.3 |
| [O-]c1n[n+](-c2ccc(Cl)c(Cl)c2)no1 | 30.9 |
| Cc1ccc(-[n+]2noc([O-])n2)cc1 | 27.5 |
| COc1ccc(-[n+]2noc([O-])n2)cc1 | 20 |

Challenge: What reported Decrease in blood pressure corresponds to `[O-]c1n[n+](-c2ccccc2)no1` on Rattus norvegicus?
Response given: 52.3

Challenge: What reported Decrease in blood pressure corresponds to `O=[N+]([O-])c1ccc(-[n+]2noc([O-])n2)cc1` on Rattus norvegicus?
Response given: 23.8
